# Test system: Right cardiac atrium
# experiment_summary: Negative ionotropic activity in electrically-paced Cavia porcellus (guinea pig) right atrium assessed as effect on force measured immediately by isometric transducer analysis in presence of benzalkonium/prazosin
# Type: functional, tissue-based
recorded_metric: EC50 (nM)
Please respond with the number in nM and leave the unit unwritten.

Incoming: Fill in reported EC50 for this entry: COc1ccccc1CN1CCC(C2CCN(C(=O)CCCCCCC(=O)N3CCC(C4CCN(Cc5ccccc5OC)CC4)CC3)CC2)CC1 [PIPERTRAMINE AMIDE]
Outgoing: 2.29

###

# Tested on: Right cardiac atrium
# experiment_summary: Negative […] activity in electrically-paced Cavia porcellus (guinea pig) right atrium assessed as effect on rate measured immediately by isometric transducer analysis in presence of benzalkonium/prazosin
# Type: functional, tissue-based
recorded_metric: EC50 (nM)
Output spec: scalar in nM, unitless text.

Incoming: Recall and state the measured EC50 for COc1ccccc1CN1CCC(C2CCN(C(=O)CCCCCCC(=O)N3CCC(C4CCN(Cc5ccccc5OC)CC4)CC3)CC2)CC1 [PIPERTRAMINE AMIDE] .
Outgoing: 1.51

###

# Tested on: Right cardiac atrium
# experiment_summary: Negative […] activity in electrically-paced Cavia porcellus (guinea pig) right atrium assessed as effect on rate measured immediately by isometric transducer analysis in absence of benzalkonium/prazosin
# Type: functional, tissue-based
recorded_metric: EC50
Your reply should be a number followed by the unit it is expressed in.

Incoming: Return EC50 for the following compound: COc1ccccc1CN1CCC(C2CCN(C(=O)CCCCCCC(=O)N3CCC(C4CCN(Cc5ccccc5OC)CC4)CC3)CC2)CC1 [PIPERTRAMINE AMIDE]
Outgoing: 0.977 nM

###

# Test system: Right cardiac atrium
# experiment_summary: Negative […] activity in electrically-paced Cavia porcellus (guinea pig) right atrium assessed as effect on force measured after 60 min by isometric transducer analysis in presence of benextramine/4-DAMP mustard
# Type: functional, tissue-based
# condition_notes: 1 h
recorded_metric: EC50 (nM)
State just the number; it will be interpreted in nM.

[
  {
    "compound": "COc1ccccc1CN1CCC(C2CCN(CCCCCCCCN3CCC(C4CCN(Cc5ccccc5OC)CC4)CC3)CC2)CC1 [PIPERTRAMINE]",
    "unit": "nM",
    "recorded_result": 0.263
  },
  {
    "compound": "COc1ccccc1CN1CCC(C2CCN(C(=O)CCCCCCC(=O)N3CCC(C4CCN(Cc5ccccc5OC)CC4)CC3)CC2)CC1 [PIPERTRAMINE AMIDE]",
    "unit": "nM",
    "recorded_result": 3.16
  }
]

Incoming: Determine from records and report EC50 for CCCCCCCCCCCCNC(=O)[C@@H](N)CCCCN [N-DODECYL LYSINE AMIDE]
Outgoing: 0.282

Data provenance: ChEMBL document CHEMBL3044753
